Reference source: BigSolDB 2.1

conditionLabel: in ethyl acetate, 293.15 K
propertyName: solubility (mole fraction)
Would you mind answering with just the numeric figure?

# input Tell me the measured solubility (mole fraction) of Cc1c(OCC(F)(F)F)ccnc1CS(=O)c1nc2ccccc2[nH]1 (stereo unspecified) , please.
# output 0.00799

====

conditionLabel: in n-propyl acetate, 283.15 K
propertyName: solubility (mole fraction)
Would you mind answering with just the numeric figure?

# input Tell me the measured solubility (mole fraction) of Cc1c(OCC(F)(F)F)ccnc1CS(=O)c1nc2ccccc2[nH]1 (stereo unspecified) , please.
# output 0.00268

====

conditionLabel: in methanol, 318.15 K
propertyName: solubility (mole fraction)

# input Tell me the measured solubility (mole fraction) of Cc1c(OCC(F)(F)F)ccnc1CS(=O)c1nc2ccccc2[nH]1 (stereo unspecified) , please.
# output 0.125
